// data source = ChEMBL document CHEMBL1127451

experiment: In vitro glutathione peroxidase activity at 2*10e-7M using hydrogen peroxide, activity given in percentage of ebselen''s activity; format: functional
measure: GSH-Px activity

>>> meas_value("Nc1ccc(C(O)c2ccccc2)cc1[Se][Se]c1cc(C(O)c2ccccc2)ccc1N (configuration not stated)")
54
>>> meas_value("Nc1ccc(C(=O)c2ccc(Cl)cc2)cc1[Se][Se]c1cc(C(=O)c2ccc(Cl)cc2)ccc1N")
116
>>> meas_value("O=c1[nH]c2ccc(Cc3ccccc3)cc2[se]1")
0.7
>>> meas_value("O=C(c1ccccc1)c1ccc2[nH]c(=O)[se]c2c1")
0
>>> meas_value("CCCC(=O)c1ccc2c(c1)[se]c(=O)n2C")
0
>>> meas_value("Cn1c(=O)[se]c2cc(C(=O)c3ccc(Cl)cc3)ccc21")
0
>>> meas_value("CNc1ccccc1[Se][Se]c1ccccc1NC")
325
